Biological target: CD40 on peripheral blood mononuclear cells (PBMC) from healthy donors (human, UniProt P25942 21-277)
Sequence (P25942 21-277): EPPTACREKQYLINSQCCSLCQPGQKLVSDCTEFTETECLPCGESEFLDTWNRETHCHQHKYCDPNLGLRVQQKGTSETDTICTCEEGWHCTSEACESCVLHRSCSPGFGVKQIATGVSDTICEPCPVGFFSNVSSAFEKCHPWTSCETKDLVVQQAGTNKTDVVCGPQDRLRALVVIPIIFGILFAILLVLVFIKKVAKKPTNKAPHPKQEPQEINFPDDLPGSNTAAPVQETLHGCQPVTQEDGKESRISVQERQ
Assay: cell-based or functional assay
READOUT: Percentage inhibition of TNF secretion at 1 ng/ml (%)
Note: unit % is implicit; provide only the numeric part.

[
  {
    "BINDER": "PG102_Var2 (antibody, human IgG4 S228P, kappa, V domains shown, IgG4pro(deltaK)/kappa; also called FFP104_Var2) VH: QVQLQESGPGLVKPSETLSITCTVSGFSLSRYSVYWVRQPPGKGLEWMGMMWGGGSTDYSTSLKSRLTISKDTSKSQVSLKMSSLTAADTAVYYCVRTDGDYWGQGTLVTVSS VL: ELQLTQSPLSLPVTLGQPASISCRSSQSLASSSGNTYLHWYLQRPGQSPRLLIYKVSNRFSGVPDRFSGSGSGTDFTLKISRVEAEDVGVYYCSQSTHVPWTFGGGTKLEIKR",
    "MEASURED NUMBER": 20.2
  }
]

Give the measured Percentage inhibition of TNF secretion at 1 ng/ml of PG102_Var10 (antibody, human IgG4 S228P, kappa, V domains shown, IgG4pro(deltaK)/kappa; also called FFP104_Var10) VH: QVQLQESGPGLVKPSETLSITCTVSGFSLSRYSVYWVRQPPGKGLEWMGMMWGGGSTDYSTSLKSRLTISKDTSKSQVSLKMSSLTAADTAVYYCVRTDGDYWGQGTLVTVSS VL: ELQLTQSPLSLPVTLGQPASISCRSSQSLADSQGNTYLHWYLQRPGQSPRLLIYKVSNRFSGVPDRFSGSGSGTDFTLKISRVEAEDVGVYYCSQSTHVPWTFGGGTKLEIKR .
14.4
